Target: FLAG-tagged Vanin-1 (AA 22-493, T26I) (Homo sapiens, UniProt O95497, T26I)
Construct: FLAG-tagged Vanin-1 (AA 22-493, T26I, produced internally); FLAG; made in house
Sequence (O95497 22-493 T26I): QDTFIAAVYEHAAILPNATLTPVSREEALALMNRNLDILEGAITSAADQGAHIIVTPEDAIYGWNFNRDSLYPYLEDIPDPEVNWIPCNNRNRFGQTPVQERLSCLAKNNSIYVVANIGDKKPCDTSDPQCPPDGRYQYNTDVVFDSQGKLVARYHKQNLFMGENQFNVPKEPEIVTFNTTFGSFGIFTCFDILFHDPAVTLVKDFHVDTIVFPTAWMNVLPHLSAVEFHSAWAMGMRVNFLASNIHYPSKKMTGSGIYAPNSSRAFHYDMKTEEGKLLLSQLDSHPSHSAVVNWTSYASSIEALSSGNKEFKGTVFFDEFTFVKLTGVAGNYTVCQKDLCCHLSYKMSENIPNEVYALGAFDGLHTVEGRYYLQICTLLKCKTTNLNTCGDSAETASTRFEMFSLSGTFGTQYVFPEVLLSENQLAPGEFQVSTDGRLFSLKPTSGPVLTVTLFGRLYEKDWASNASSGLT
Assay: Vanin-1 enzymatic assay (pantothenic acid formation, RapidFire mass spectrometry)
Assay type: biochemical
Conditions: 0.1 nM FLAG-tagged Vanin-1, 3 μM D-pantethine, room temperature; geometric mean in case of multiple measurements; read-out: VNN-1 IC50
pIC50: −log10 of the molar value.
measurement kind: pIC50

molecule | measured on | recorded measurement
CC(=O)N(C)[C@H]1CCN(C(=O)c2ccc(NCc3cccc4cccnc34)nc2)C1 [Example 5.30] | FLAG-tagged Vanin-1 (AA 22-493, T26I) (Homo sapiens, UniProt O95497, T26I) | 8.52
CC(=O)N(C)[C@H]1CCN(C(=O)c2ccc(NCc3ncn4ccccc34)nc2)C1 [Example 5.19] | FLAG-tagged Vanin-1 (AA 22-493, T26I) (Homo sapiens, UniProt O95497, T26I) | 9.12

(P) CC(=O)N(C)[C@H]1CCN(C(=O)c2ccc(NCc3noc4c3CCCC4)nc2)C1 [Example 5.21]
(Q) CC(=O)N(C)[C@H]1CCN(C(=O)c2ccc(N[C@H](C)c3cccc4nn(C)cc34)nc2)C1 [Example 5.27]
Which value of pIC50 is numerically greater: that of P or that of Q ? Could you answer with the label of the item you picked?
P

* * *

molecular target: FLAG-tagged Vanin-1 (AA 22-493, T26I) (Homo sapiens, UniProt O95497, T26I); construct: FLAG-tagged Vanin-1 (AA 22-493, T26I, produced internally); FLAG; assay: Vanin-1 enzymatic assay (pantothenic acid formation, RapidFire mass spectrometry); conditions: 0.1 nM FLAG-tagged Vanin-1, 3 μM D-pantethine, room temperature; geometric mean in case of multiple measurements; read-out: VNN-1 IC50
measurement kind: IC50 (nM)

Examples with their reported IC50 follow.
molecule | recorded measurement
C[C@H](Nc1ccc(C(=O)N2CC[C@H](N(C)C(=O)C3CC(F)(F)C3)C2)cn1)c1cnc2[nH]ccc2c1 [Example 1.10] | 0.16
CC(=O)N(C)[C@H]1CCN(C(=O)c2ccc(NCc3cc(Br)cc4[nH]ncc34)nc2)C1 | 0.13
CC(=O)N(C)[C@H]1CCN(C(=O)c2ccc(NCc3csc4ccc(Cl)cc34)nc2)C1 | 0.21
CC(=O)N(C)[C@H]1CCN(C(=O)c2ccc(NCc3cc4ccccc4[nH]3)nc2)C1 | 9.33

(A) CC(=O)N(C)[C@H]1CCN(C(=O)c2ccc(NCc3cccc4ncccc34)nc2)C1
(B) CN(C(=O)C1CCC1)[C@H]1CCN(C(=O)c2ccc(NCc3cnc4ccccn34)nc2)C1
(C) CC(=O)N(C)[C@H]1CCN(C(=O)c2ccc(NCc3csc4ccccc34)nc2)C1
Ascending by IC50, please. Please respond with the labels ordered as the question requires.
B, C, A
(B: 0.1 nM, C: 0.41 nM, A: 1.23 nM)
